Assay system: T1, FGFR2 ectodomain (residues 147-366) (human, UniProt P21802 147-366)
T1 construct: range 147-366; also called FGER2; Fibroblast growth factor receptor 2
T1 sequence (P21802 other isoform, or with tags, fused parts or gaps limits assumed, form in doubt): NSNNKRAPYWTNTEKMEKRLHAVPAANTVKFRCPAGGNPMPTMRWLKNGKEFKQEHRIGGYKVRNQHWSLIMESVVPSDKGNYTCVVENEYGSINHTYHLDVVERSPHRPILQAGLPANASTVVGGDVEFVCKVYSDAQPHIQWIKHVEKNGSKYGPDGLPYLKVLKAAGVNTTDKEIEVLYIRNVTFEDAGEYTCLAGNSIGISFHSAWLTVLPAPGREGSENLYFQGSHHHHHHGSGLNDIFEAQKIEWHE
Procedure summary: BLI (Octet); biotinylated target on streptavidin sensors, miniprotein as analyte
Recorded endpoint: Kd (nM)

binder="FGFR2_mb (designed binder) MSHHHHHHHHSENLYFQSGGGDRRKEMDKVYRTAFKRITSTPDKEKRKEVVKEATEQLRRIAKDEEEKKKAAYMILFLKTLG" reported=0.543
